Test system: PC-3 [JPC-3]
experimental protocol: relative viability (nuclei count vs DMSO), 5 days (fraction); higher = more cells survive
measurement setup: first compound 5 µM
observation type: relative viability
Could you keep your reply to the number by itself?

Lab note: O=C(O)CCCCC(CCSCc1ccccc1)SCc1ccccc1 (centres undefined) [CPI-613] + C[C@]1(O)C[C@@H](c2nc(-c3ccc4ccc(-c5ccccc5)nc4c3)c3c(N)nccn32)C1 [Linsitinib] (partner 1 µM) gave relative viability of 0.953

Lab note: O=C(O)CCCCC(CCSCc1ccccc1)SCc1ccccc1 (centres undefined) [CPI-613] + COc1cccc2cc(-c3nc([C@H]4CC[C@H](C(=O)O)CC4)n4ncnc(N)c34)[nH]c12 [OSI-027] (partner 0.5 µM) gave relative viability of 0.753

Lab note: O=C(O)CCCCC(CCSCc1ccccc1)SCc1ccccc1 (centres undefined) [CPI-613] + Cc1nc(NC(=O)N2CCC[C@H]2C(N)=O)sc1-c1ccnc(C(C)(C)C(F)(F)F)c1 [Alpelisib] (partner 2 µM) gave relative viability of 1.05

Lab note: O=C(O)CCCCC(CCSCc1ccccc1)SCc1ccccc1 (centres undefined) [CPI-613] + C[C@@H](Oc1cc(-c2cnn(C3CCNCC3)c2)cnc1N)c1c(Cl)ccc(F)c1Cl [Crizotinib] (partner 1 µM) gave relative viability of 0.977
